Just for reference, BigSolDB 2.1 is where these values come from.

# PARTICULARS: in methyl acetate, 288.15 K
QUANTITY NAME: solubility (mole fraction)
Answer field: number only, no words.

Lab book: solubility (mole fraction) of CC(=O)N[C@H](C(=O)O)C(C)C noted as 0.00393

###

# PARTICULARS: in 1,4-dioxane, 293.15 K
QUANTITY NAME: solubility (mole fraction)
Answer field: number only, no words.

Lab book: solubility (mole fraction) of CC(=O)N[C@H](C(=O)O)C(C)C noted as 0.0363

###

# PARTICULARS: in acetone, 313.15 K
QUANTITY NAME: solubility (mole fraction)
Answer field: number only, no words.

Lab book: solubility (mole fraction) of CC(=O)N[C@H](C(=O)O)C(C)C noted as 0.0333

###

# PARTICULARS: in n-butanol, 318.15 K
QUANTITY NAME: solubility (mole fraction)
Answer field: number only, no words.

Lab book: solubility (mole fraction) of CC(=O)N[C@H](C(=O)O)C(C)C noted as 0.104

###

# PARTICULARS: in 1,4-dioxane, 308.15 K
QUANTITY NAME: solubility (mole fraction)
Answer field: number only, no words.

Lab book: solubility (mole fraction) of CC(=O)N[C@H](C(=O)O)C(C)C noted as 0.06

###

# PARTICULARS: in isobutanol, 298.15 K
QUANTITY NAME: solubility (mole fraction)
Answer field: number only, no words.

Lab book: solubility (mole fraction) of CC(=O)N[C@H](C(=O)O)C(C)C noted as 0.0566

###

# PARTICULARS: in ethyl acetate, 313.15 K
QUANTITY NAME: solubility (mole fraction)
Answer field: number only, no words.

Lab book: solubility (mole fraction) of CC(=O)N[C@H](C(=O)O)C(C)C noted as 0.00847

###

# PARTICULARS: in n-butanol, 323.15 K
QUANTITY NAME: solubility (mole fraction)
Answer field: number only, no words.

Lab book: solubility (mole fraction) of CC(=O)N[C@H](C(=O)O)C(C)C noted as 0.115

###

# PARTICULARS: in 1,4-dioxane, 318.15 K
QUANTITY NAME: solubility (mole fraction)
Answer field: number only, no words.

Lab book: solubility (mole fraction) of CC(=O)N[C@H](C(=O)O)C(C)C noted as 0.0805

###

# PARTICULARS: in acetone, 323.15 K
QUANTITY NAME: solubility (mole fraction)
Answer field: number only, no words.

Lab book: solubility (mole fraction) of CC(=O)N[C@H](C(=O)O)C(C)C noted as 0.0437

###

# PARTICULARS: in n-butanol, 283.15 K
QUANTITY NAME: solubility (mole fraction)
Answer field: number only, no words.

Lab book: solubility (mole fraction) of CC(=O)N[C@H](C(=O)O)C(C)C noted as 0.0371

###

# PARTICULARS: in 2-butanone, 288.15 K
QUANTITY NAME: solubility (mole fraction)
Answer field: number only, no words.

Lab book: solubility (mole fraction) of CC(=O)N[C@H](C(=O)O)C(C)C noted as 0.00748

###

# PARTICULARS: in acetonitrile, 293.15 K
QUANTITY NAME: solubility (mole fraction)
Answer field: number only, no words.

Lab book: solubility (mole fraction) of CC(=O)N[C@H](C(=O)O)C(C)C noted as 0.00352

###

# PARTICULARS: in acetonitrile, 318.15 K
QUANTITY NAME: solubility (mole fraction)
Answer field: number only, no words.

Lab book: solubility (mole fraction) of CC(=O)N[C@H](C(=O)O)C(C)C noted as 0.00909

###

# PARTICULARS: in n-propanol, 298.15 K
QUANTITY NAME: solubility (mole fraction)
Answer field: number only, no words.

Lab book: solubility (mole fraction) of CC(=O)N[C@H](C(=O)O)C(C)C noted as 0.0747

###

# PARTICULARS: in acetonitrile, 298.15 K
QUANTITY NAME: solubility (mole fraction)
Answer field: number only, no words.

Lab book: solubility (mole fraction) of CC(=O)N[C@H](C(=O)O)C(C)C noted as 0.00464

###

# PARTICULARS: in n-butanol, 313.15 K
QUANTITY NAME: solubility (mole fraction)
Answer field: number only, no words.

Lab book: solubility (mole fraction) of CC(=O)N[C@H](C(=O)O)C(C)C noted as 0.0902

###

# PARTICULARS: in dimethyl carbonate, 313.15 K
QUANTITY NAME: solubility (mole fraction)
Answer field: number only, no words.

Lab book: solubility (mole fraction) of CC(=O)N[C@H](C(=O)O)C(C)C noted as 0.00395

###

# PARTICULARS: in water, 308.15 K
QUANTITY NAME: solubility (mole fraction)

Lab book: solubility (mole fraction) of CC(=O)N[C@H](C(=O)O)C(C)C noted as 0.01

###

# PARTICULARS: in water, 298.15 K
QUANTITY NAME: solubility (mole fraction)
Answer field: number only, no words.

Lab book: solubility (mole fraction) of CC(=O)N[C@H](C(=O)O)C(C)C noted as 0.00748

###

# PARTICULARS: in 1,4-dioxane, 323.15 K
QUANTITY NAME: solubility (mole fraction)
Answer field: number only, no words.

Lab book: solubility (mole fraction) of CC(=O)N[C@H](C(=O)O)C(C)C noted as 0.0921

###

# PARTICULARS: in 1,4-dioxane, 298.15 K
QUANTITY NAME: solubility (mole fraction)

Lab book: solubility (mole fraction) of CC(=O)N[C@H](C(=O)O)C(C)C noted as 0.0427

###

# PARTICULARS: in n-butanol, 288.15 K
QUANTITY NAME: solubility (mole fraction)
Answer field: number only, no words.

Lab book: solubility (mole fraction) of CC(=O)N[C@H](C(=O)O)C(C)C noted as 0.0428

###

# PARTICULARS: in dimethyl carbonate, 308.15 K
QUANTITY NAME: solubility (mole fraction)
Answer field: number only, no words.

Lab book: solubility (mole fraction) of CC(=O)N[C@H](C(=O)O)C(C)C noted as 0.00331

###

# PARTICULARS: in acetone, 288.15 K
QUANTITY NAME: solubility (mole fraction)

Lab book: solubility (mole fraction) of CC(=O)N[C@H](C(=O)O)C(C)C noted as 0.0133

###

# PARTICULARS: in isopropanol, 323.15 K
QUANTITY NAME: solubility (mole fraction)
Answer field: number only, no words.

Lab book: solubility (mole fraction) of CC(=O)N[C@H](C(=O)O)C(C)C noted as 0.134

###

# PARTICULARS: in acetone, 298.15 K
QUANTITY NAME: solubility (mole fraction)
Answer field: number only, no words.

Lab book: solubility (mole fraction) of CC(=O)N[C@H](C(=O)O)C(C)C noted as 0.0196

###

# PARTICULARS: in ethyl acetate, 303.15 K
QUANTITY NAME: solubility (mole fraction)

Lab book: solubility (mole fraction) of CC(=O)N[C@H](C(=O)O)C(C)C noted as 0.006

###

# PARTICULARS: in acetone, 303.15 K
QUANTITY NAME: solubility (mole fraction)
Answer field: number only, no words.

Lab book: solubility (mole fraction) of CC(=O)N[C@H](C(=O)O)C(C)C noted as 0.0238

###

# PARTICULARS: in isopropanol, 298.15 K
QUANTITY NAME: solubility (mole fraction)
Answer field: number only, no words.

Lab book: solubility (mole fraction) of CC(=O)N[C@H](C(=O)O)C(C)C noted as 0.0662

###

# PARTICULARS: in water, 283.15 K
QUANTITY NAME: solubility (mole fraction)
Answer field: number only, no words.

Lab book: solubility (mole fraction) of CC(=O)N[C@H](C(=O)O)C(C)C noted as 0.00557

###

# PARTICULARS: in methyl acetate, 283.15 K
QUANTITY NAME: solubility (mole fraction)
Answer field: number only, no words.

Lab book: solubility (mole fraction) of CC(=O)N[C@H](C(=O)O)C(C)C noted as 0.00339

###

# PARTICULARS: in 2-butanone, 318.15 K
QUANTITY NAME: solubility (mole fraction)
Answer field: number only, no words.

Lab book: solubility (mole fraction) of CC(=O)N[C@H](C(=O)O)C(C)C noted as 0.0245

###

# PARTICULARS: in dimethyl carbonate, 298.15 K
QUANTITY NAME: solubility (mole fraction)
Answer field: number only, no words.

Lab book: solubility (mole fraction) of CC(=O)N[C@H](C(=O)O)C(C)C noted as 0.0021
